Tested Target: T478K RBD (R319-F541 with T478K) (SARS-CoV-2, UniProt P0DTC2 319-541)
Measurement Notes: lateral flow NC50, RBD-AuNP vs immobilised ACE2
Measured IC50, listed per entry for reference.
Please answer in the form of a number followed by its unit of measurement.

Would you please look over these solved cases?
1035753 (antibody, V domains shown) VH: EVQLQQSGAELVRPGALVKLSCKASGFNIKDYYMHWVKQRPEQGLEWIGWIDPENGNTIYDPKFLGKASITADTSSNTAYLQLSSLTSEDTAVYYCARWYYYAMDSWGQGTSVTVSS VL: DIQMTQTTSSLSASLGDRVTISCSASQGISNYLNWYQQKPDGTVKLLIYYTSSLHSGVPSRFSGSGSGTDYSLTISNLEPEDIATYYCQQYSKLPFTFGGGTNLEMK	2.29 µg/mL
1035762 (antibody, V domains shown) VH: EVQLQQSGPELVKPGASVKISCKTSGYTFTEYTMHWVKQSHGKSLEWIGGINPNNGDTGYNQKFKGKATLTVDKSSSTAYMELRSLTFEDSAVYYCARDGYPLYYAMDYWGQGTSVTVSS VL: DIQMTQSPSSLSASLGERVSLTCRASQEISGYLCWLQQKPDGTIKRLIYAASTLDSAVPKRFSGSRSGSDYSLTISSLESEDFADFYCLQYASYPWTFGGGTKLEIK	3.77 µg/mL
1035740 (antibody, V domains shown) VH: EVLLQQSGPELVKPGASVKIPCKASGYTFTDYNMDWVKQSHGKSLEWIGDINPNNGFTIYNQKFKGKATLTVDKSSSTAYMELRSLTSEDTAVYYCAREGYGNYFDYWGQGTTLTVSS VL: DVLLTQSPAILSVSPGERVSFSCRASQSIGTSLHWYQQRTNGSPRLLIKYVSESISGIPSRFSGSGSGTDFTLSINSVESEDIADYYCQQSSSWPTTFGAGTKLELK	1.21 µg/mL

Now look at this one.
Exam item: Which IC50 value is on record for 1035419 (antibody, V domains shown) VH: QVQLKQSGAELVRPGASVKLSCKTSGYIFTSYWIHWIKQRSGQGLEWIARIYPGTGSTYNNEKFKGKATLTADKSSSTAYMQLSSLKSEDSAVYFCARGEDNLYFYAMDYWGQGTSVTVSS VL: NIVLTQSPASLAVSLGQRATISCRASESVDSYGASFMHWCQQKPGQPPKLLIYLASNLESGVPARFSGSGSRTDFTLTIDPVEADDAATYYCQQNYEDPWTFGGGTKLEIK ?
Marked response: 9.01 µg/mL
